Biological target: HDAC 3 (Homo sapiens)
Sequence (O15379 whole entry): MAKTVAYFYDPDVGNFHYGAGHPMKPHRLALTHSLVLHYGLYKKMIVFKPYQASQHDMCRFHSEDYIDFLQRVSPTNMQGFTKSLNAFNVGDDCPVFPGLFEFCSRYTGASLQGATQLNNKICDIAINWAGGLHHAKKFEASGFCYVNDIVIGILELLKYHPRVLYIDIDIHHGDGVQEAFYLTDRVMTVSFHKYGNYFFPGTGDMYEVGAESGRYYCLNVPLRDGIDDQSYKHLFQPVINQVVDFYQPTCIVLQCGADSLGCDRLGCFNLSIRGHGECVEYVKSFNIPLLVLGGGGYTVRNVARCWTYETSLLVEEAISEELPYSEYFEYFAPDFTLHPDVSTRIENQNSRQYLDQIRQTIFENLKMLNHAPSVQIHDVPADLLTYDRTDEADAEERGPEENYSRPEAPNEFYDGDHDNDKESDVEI
Sequence (Q9Y618 395-489 partner limits assumed): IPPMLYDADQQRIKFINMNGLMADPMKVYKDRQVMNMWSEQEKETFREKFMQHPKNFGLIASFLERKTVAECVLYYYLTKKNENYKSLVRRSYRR
Conditions: 200 ug/ml
MEASURED PARAMETER: HDAC 3 activity, % of water-treated controls (%)
Numbers only, in %.

# count of solved cases: 2
1. CCCC(=O)NCCCC[C@H](NC(=O)CCC)C(=O)[O-].CCCC(=O)NCCCC[C@H](NC(=O)CCC)C(=O)[O-].[Mg+2] [Mg di-(di-n-butyryl lysinate), magnesium di-(di-n-butyryl lysinate)] : 117
2. CCCC(=O)[O-].[Na+] [Sodium butyrate, reference compound] : 60

Count: 2. Required value per item: HDAC 3 activity, % of water-treated controls.
1. CCCC(=O)NCCCCC(NC(=O)CCC)C(=O)[O-].CCCC(=O)NCCCCC(NC(=O)CCC)C(=O)[O-].[Ca+2] (stereo not shown) [Ca di-(di-n-butyryl lysinate), calcium di-(di-n-butyryl lysinate)]
2. CCCC(=O)NCCCC[C@H](NC(=O)CCC)C(=O)[O-].CCCC(=O)NCCCC[C@H](NC(=O)CCC)C(=O)[O-].[Zn+2] [Zn di-(di-n-butyryl lysinate), Zinc di-(di-n-butyryl lysinate)]

Result:
1: 119; 2: 4

====

Target: FABP-3 (Homo sapiens)
Construct: purchased Neovateinbio PT-452
Sequence (P05413 whole entry): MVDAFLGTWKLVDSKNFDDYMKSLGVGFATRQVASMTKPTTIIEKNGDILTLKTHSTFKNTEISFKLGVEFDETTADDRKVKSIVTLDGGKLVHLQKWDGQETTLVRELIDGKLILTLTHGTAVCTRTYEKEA
Test: FABP-3 ELISA inhibitory assay
Assay type: biochemical
MEASURED PARAMETER: FABP-3 IC50 (µg/mL)
Answers are plain numbers, in µg/mL.

The cases that follow already have their FABP-3 IC50 on record.
1. CCCC(=O)N[C@@H](CC(C)C)C(=O)[O-].CCCC(=O)N[C@@H](CC(C)C)C(=O)[O-].[Zn+2] [Zn di-(n-butyryl leucinate), Zinc di-(n-butyryl leucinate)] : 630.9
2. CCCC(=O)NCCCC[C@H](NC(=O)CCC)C(=O)[O-].CCCC(=O)NCCCC[C@H](NC(=O)CCC)C(=O)[O-].[Mg+2] [Mg di-(di-n-butyryl lysinate), magnesium di-(di-n-butyryl lysinate)] : 282.5
3. CCCC(=O)NCCCC[C@H](NC(=O)CCC)C(=O)[O-].CCCC(=O)NCCCC[C@H](NC(=O)CCC)C(=O)[O-].[Zn+2] [Zn di-(di-n-butyryl lysinate), Zinc di-(di-n-butyryl lysinate)] : 242.4

Please turn your attention to the following entry.
Task: If you can, please state the reported FABP-3 IC50 value of CCCC(=O)NCCCCC(NC(=O)CCC)C(=O)[O-].CCCC(=O)NCCCCC(NC(=O)CCC)C(=O)[O-].[Ca+2] (stereo not shown) [Ca di-(di-n-butyryl lysinate), calcium di-(di-n-butyryl lysinate)] .
Result: 188.6

====

Target: HDAC7 (Homo sapiens, UniProt Q8WUI4)
Sequence (Q8WUI4 whole entry): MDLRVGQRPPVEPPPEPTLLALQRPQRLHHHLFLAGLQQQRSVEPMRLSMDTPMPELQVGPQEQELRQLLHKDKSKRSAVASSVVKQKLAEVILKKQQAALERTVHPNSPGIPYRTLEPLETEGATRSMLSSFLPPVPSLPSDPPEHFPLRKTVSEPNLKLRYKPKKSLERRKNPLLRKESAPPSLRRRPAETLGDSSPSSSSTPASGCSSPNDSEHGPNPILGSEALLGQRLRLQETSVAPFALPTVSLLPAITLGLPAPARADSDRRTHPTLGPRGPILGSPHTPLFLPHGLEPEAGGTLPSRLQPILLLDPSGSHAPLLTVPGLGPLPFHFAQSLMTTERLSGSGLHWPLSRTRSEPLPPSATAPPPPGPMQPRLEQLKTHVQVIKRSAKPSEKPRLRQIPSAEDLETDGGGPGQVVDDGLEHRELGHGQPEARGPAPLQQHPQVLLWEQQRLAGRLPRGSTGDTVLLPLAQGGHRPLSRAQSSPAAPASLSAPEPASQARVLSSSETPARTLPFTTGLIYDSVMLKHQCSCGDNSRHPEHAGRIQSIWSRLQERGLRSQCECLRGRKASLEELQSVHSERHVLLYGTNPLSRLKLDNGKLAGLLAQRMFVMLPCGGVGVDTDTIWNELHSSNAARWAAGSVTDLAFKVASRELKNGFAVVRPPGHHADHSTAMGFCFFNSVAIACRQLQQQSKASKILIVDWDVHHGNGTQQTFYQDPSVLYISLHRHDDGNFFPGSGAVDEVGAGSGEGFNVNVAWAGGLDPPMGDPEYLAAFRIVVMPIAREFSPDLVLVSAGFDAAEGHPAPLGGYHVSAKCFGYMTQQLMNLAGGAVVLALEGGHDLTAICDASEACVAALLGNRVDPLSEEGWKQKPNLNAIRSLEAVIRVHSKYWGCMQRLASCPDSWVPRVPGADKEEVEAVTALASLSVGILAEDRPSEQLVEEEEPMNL
Conditions: 100 ug/ml
MEASURED PARAMETER: HDAC 7 activity, % of water-treated controls (%)
Give bare numbers, in %.

// below: answered molecules
1. CCCC(=O)N[C@@H](CC(C)C)C(=O)[O-].CCCC(=O)N[C@@H](CC(C)C)C(=O)[O-].[Zn+2] [Zn di-(n-butyryl leucinate), Zinc di-(n-butyryl leucinate)] : 9
2. CCCC(=O)NCCCC[C@H](NC(=O)CCC)C(=O)[O-].CCCC(=O)NCCCC[C@H](NC(=O)CCC)C(=O)[O-].[Zn+2] [Zn di-(di-n-butyryl lysinate), Zinc di-(di-n-butyryl lysinate)] : 9
3. CCCC(=O)NCCCCC(NC(=O)CCC)C(=O)[O-].CCCC(=O)NCCCCC(NC(=O)CCC)C(=O)[O-].[Ca+2] (centres unmarked) [Ca di-(di-n-butyryl lysinate), calcium di-(di-n-butyryl lysinate)] : 99
4. CCCC(=O)[O-].[Na+] [Sodium butyrate, reference compound] : 94

Let us move to another entry and its HDAC 7 activity, % of water-treated controls.
Task: Record request: HDAC 7 activity, % of water-treated controls value, item CCCC(=O)NCCCC[C@H](NC(=O)CCC)C(=O)[O-].CCCC(=O)NCCCC[C@H](NC(=O)CCC)C(=O)[O-].[Mg+2] [Mg di-(di-n-butyryl lysinate), magnesium di-(di-n-butyryl lysinate)]
Result: 100

====

Molecular target: HDAC10 (Homo sapiens, UniProt Q969S8)
Sequence (Q969S8 1-669): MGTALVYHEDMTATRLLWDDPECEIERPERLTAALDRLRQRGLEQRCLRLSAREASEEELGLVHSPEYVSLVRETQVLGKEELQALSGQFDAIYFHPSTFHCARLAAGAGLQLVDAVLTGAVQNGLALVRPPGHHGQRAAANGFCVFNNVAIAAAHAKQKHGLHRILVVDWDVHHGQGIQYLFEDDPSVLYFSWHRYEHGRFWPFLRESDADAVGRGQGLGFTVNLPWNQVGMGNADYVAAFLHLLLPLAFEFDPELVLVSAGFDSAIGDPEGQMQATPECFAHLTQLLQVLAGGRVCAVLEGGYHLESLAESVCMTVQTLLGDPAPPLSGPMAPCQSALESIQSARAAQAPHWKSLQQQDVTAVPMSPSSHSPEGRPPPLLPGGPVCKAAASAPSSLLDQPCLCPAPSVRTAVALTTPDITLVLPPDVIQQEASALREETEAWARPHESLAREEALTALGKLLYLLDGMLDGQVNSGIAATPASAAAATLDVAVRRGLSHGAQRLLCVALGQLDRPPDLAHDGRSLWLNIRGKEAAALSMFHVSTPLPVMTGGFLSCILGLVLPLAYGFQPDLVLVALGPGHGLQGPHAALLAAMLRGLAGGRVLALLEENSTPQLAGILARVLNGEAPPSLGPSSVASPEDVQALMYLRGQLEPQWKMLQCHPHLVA
Conditions: 100 ug/ml
MEASURED PARAMETER: HDAC 10 activity, % of water-treated controls (%)
Give bare numbers, in %.

1) CCCC(=O)[O-].[Na+] [Sodium butyrate, reference compound] : 103
2) CCCC(=O)N[C@@H](CC(C)C)C(=O)[O-].CCCC(=O)N[C@@H](CC(C)C)C(=O)[O-].[Zn+2] [Zn di-(n-butyryl leucinate), Zinc di-(n-butyryl leucinate)] : 8
3) CCCC(=O)NCCCC[C@H](NC(=O)CCC)C(=O)[O-].CCCC(=O)NCCCC[C@H](NC(=O)CCC)C(=O)[O-].[Zn+2] [Zn di-(di-n-butyryl lysinate), Zinc di-(di-n-butyryl lysinate)] : 9
4) CCCC(=O)NCCCCC(NC(=O)CCC)C(=O)[O-].CCCC(=O)NCCCCC(NC(=O)CCC)C(=O)[O-].[Ca+2] (centres unmarked) [Ca di-(di-n-butyryl lysinate), calcium di-(di-n-butyryl lysinate)] : 104

Next compound, please.
Task: Hello, I am looking for reported HDAC 10 activity, % of water-treated controls with HDAC10 (Homo sapiens, UniProt Q969S8) for CCCC(=O)NCCCC[C@H](NC(=O)CCC)C(=O)[O-].CCCC(=O)NCCCC[C@H](NC(=O)CCC)C(=O)[O-].[Mg+2] [Mg di-(di-n-butyryl lysinate), magnesium di-(di-n-butyryl lysinate)] . Could you help?
Result: 98

====

For each of the molecules below, state its HDAC 7 activity, % of water-treated controls.
Molecular target: HDAC7 (Homo sapiens)
Settings: 200 ug/ml

1) CCCC(=O)N[C@@H](CC(C)C)C(=O)[O-].CCCC(=O)N[C@@H](CC(C)C)C(=O)[O-].[Zn+2] [Zn di-(n-butyryl leucinate), Zinc di-(n-butyryl leucinate)] : 9%

List the reported HDAC 7 activity, % of water-treated controls of each molecule below.
1. CCCC(=O)NCCCCC(NC(=O)CCC)C(=O)[O-].CCCC(=O)NCCCCC(NC(=O)CCC)C(=O)[O-].[Ca+2] (centres unmarked) [Ca di-(di-n-butyryl lysinate), calcium di-(di-n-butyryl lysinate)]
2. CCCC(=O)[O-].[Na+] [Sodium butyrate, reference compound]
3. CCCC(=O)NCCCC[C@H](NC(=O)CCC)C(=O)[O-].CCCC(=O)NCCCC[C@H](NC(=O)CCC)C(=O)[O-].[Mg+2] [Mg di-(di-n-butyryl lysinate), magnesium di-(di-n-butyryl lysinate)]
4. CCCC(=O)NCCCC[C@H](NC(=O)CCC)C(=O)[O-].CCCC(=O)NCCCC[C@H](NC(=O)CCC)C(=O)[O-].[Zn+2] [Zn di-(di-n-butyryl lysinate), Zinc di-(di-n-butyryl lysinate)]

Result:
1: 97%; 2: 87%; 3: 100%; 4: 9%

====

Kindly state HDAC 8 activity, % of water-treated controls for each of the entries shown.
Target: HDAC 8 (Homo sapiens, UniProt Q9BY41)
Sequence (Q9BY41 1-377): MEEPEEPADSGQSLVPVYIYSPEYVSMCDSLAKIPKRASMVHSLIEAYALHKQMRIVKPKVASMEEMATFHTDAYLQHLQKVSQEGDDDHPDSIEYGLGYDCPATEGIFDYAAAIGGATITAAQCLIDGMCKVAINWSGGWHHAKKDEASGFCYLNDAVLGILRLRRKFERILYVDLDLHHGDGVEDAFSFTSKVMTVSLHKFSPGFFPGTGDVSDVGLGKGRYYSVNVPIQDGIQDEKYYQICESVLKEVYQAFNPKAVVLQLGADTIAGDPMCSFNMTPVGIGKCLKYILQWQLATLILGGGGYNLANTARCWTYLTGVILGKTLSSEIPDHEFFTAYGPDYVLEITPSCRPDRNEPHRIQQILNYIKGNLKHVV
Conditions: 100 ug/ml
Answers are plain numbers, in %.

Example molecules with recorded HDAC 8 activity, % of water-treated controls:
1) CCCC(=O)NCCCC[C@H](NC(=O)CCC)C(=O)[O-].CCCC(=O)NCCCC[C@H](NC(=O)CCC)C(=O)[O-].[Zn+2] [Zn di-(di-n-butyryl lysinate), Zinc di-(di-n-butyryl lysinate)] : 13
2) CCCC(=O)[O-].[Na+] [Sodium butyrate, reference compound] : 20
3) CCCC(=O)NCCCCC(NC(=O)CCC)C(=O)[O-].CCCC(=O)NCCCCC(NC(=O)CCC)C(=O)[O-].[Ca+2] (stereo not shown) [Ca di-(di-n-butyryl lysinate), calcium di-(di-n-butyryl lysinate)] : 155

Task: Please report the recorded HDAC 8 activity, % of water-treated controls for CCCC(=O)N[C@@H](CC(C)C)C(=O)[O-].CCCC(=O)N[C@@H](CC(C)C)C(=O)[O-].[Zn+2] [Zn di-(n-butyryl leucinate), Zinc di-(n-butyryl leucinate)] .
Result: 16

This collection of values is drawn from patent US20260041620A1.
